Every entry's value here was drawn from PubChem BioAssay (NCATS).

tested on: KB-3-1; assay: Cytotoxic Profiling of Annotated Libraries Using Quantitative High-Throughput Screening (AID 1296008); details: Five cell lines viability, CellTiter-Glo ATP luminescence, 48-72 h; note: nearly all actives have a fitted effect of over 60% in size
Inconclusive results are not listed. The source made the active and inactive calls. Calls come from the whole dose curve; as a rule, active = well fitted inhibition curve with a large enough effect; inconclusive = small, poorly fitted or top-dose-only effect; inactive = flat fitted curve, though single readings scatter.
Result category, one only: active, inactive

CS(=O)(=O)c1cccc(CNc2nc(Nc3ccc4c(c3)CCC(=O)N4)ncc2C(F)(F)F)c1 ... active

I would be grateful if you could indicate the recorded call for O=C1CCCC2=C1C(c1[nH]ncc1Cl)N=C(Nc1nc3ccccc3o1)N2 (stereo not given) . inactive

I would be grateful if you could indicate the recorded call for CCN(CC)CCCC(C)Nc1ccnc2cc(Cl)ccc12 (stereo not given) . inactive

I would be grateful if you could indicate the recorded call for Clc1cccc(Cl)c1NC1=NCCN1 . inactive

I would be grateful if you could indicate the recorded call for CCOC(=O)N1CCC(=C2c3ccc(Cl)cc3CCc3cccnc32)CC1 . inactive

* * *

assay: qHTS for identification of novel therapeutic agents for treatment of microphthalmiaassociated transcription factor (MiT) renal cell carcinoma (RCC) (AID 1963991); conditions: TFE3-RCC UOK109 viability, CellTiter-Glo, 48 h; measured here: UOK109 Z-AUC; stronger effect = lower value;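 note: curves scaled with 100% = DMSO viability and 0% = empty wells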
Results filed as inconclusive are left out.
Recorded z-score determines the group label, using class 1 = under 0.3, class 2 = from 0.3 up to 0.7, class 3 = 0.7 and over

Before answering, review these 3 worked examples.
Cc1n[nH]c(C)c1Cc1sc2c(c1C(=O)N1C[C@H](O)CO1)c(=O)n(C)c(=O)n2CC(C)C ... class 2
CCC(C)N(C)C(=O)c1cc2ccccc2c(-c2ccccc2Cl)n1 (stereo not given) ... class 2
NC(=O)c1ccc(I)c([N+](=O)[O-])c1 ... class 1

Band of Cc1c(CN2CCN(C(=O)C(C)C)CC2)sc2c(N3CCOCC3)nc(-c3cnc(N)nc3)nc12 ? class 1

Band of Nc1ccc(S(=O)(=O)Nc2ccnn2-c2ccccc2)cc1 ? class 3

Band of Oc1ccc(C2CNCCc3c2cc(O)c(O)c3Cl)cc1 (stereo not given) ? class 1

Band of O=C1CCC(N2C(=O)c3ccccc3C2=O)C(=O)N1 (stereo not given) ? class 2

* * *

test: Quantitative High-Throughput drug screen in 47 multiple myeloma cell lines against the NCATS MIPE library collection: FR4_PLB cell viability assay (AID 1918924; note: nearly all actives have a fitted effect of over 35% in size); conditions: FR4_PLB myeloma cells viability, CellTiter-Glo ATP, 48 h; series mostly up to 45.8 µM
Results filed as inconclusive are left out. The source made the active and inactive calls. Calls come from the whole dose curve; as a rule, active = well fitted cell-killing curve with a large enough effect; inconclusive = small, poorly fitted or top-dose-only effect, or effect the other way; inactive = no such curve, though single readings can be large or run the other way.
Result category, one only: class 1 for active, class 0 for inactive

Cc1c(CN2CCN(C(=O)C(C)C)CC2)sc2c(N3CCOCC3)nc(-c3cnc(N)nc3)nc12 ... class 1

I would be grateful if you could indicate the recorded call for N[C@@H]1CONC1=O . class 0

* * *

assay: Quantitative High-Throughput drug screen in 47 multiple myeloma cell lines against the NCATS MIPE library collection: XG1_PLB cell viability assay (AID 1919866); conditions: CellTiter-Glo ATP, 48 h; series mostly up to 45.8 µM; note: nearly all actives have a fitted effect of over 35% in size
Records with an inconclusive call do not appear. Activity calls are given as the source filed them. Calls follow the shape of the dose curve; as a rule, active = well fitted cell-killing curve with a large enough effect; inconclusive = small, poorly fitted or top-dose-only effect, or effect the other way; inactive = no such curve, though single readings can be large or run the other way.
Result category, one only: yes (1) (active), no (0) (inactive)

Before answering, review these 4 worked examples.
Cc1ccccc1C(OCCN(C)C)c1ccccc1 (stereo unspecified) ... no (0)
N=c1nc(N2CCCCC2)cc(N)n1O ... yes (1)
CN(C(=O)c1ccc(F)cc1C(F)(F)F)C1CCN(c2nnc(-c3ccnn3C)c3ccccc23)CC1 ... yes (1)
CC(=O)NC(C)c1ccc(Oc2ccc(OC(C)C)cc2)cc1 (stereo unspecified) ... yes (1)

I would be grateful if you could indicate the recorded call for O=c1[nH]c(-c2ccc(C(F)(F)F)cc2)nc2c1CSCC2 . no (0)

I would be grateful if you could indicate the recorded call for OC(CN1CCC(Cc2ccc(F)cc2)CC1)c1ccc(Cl)cc1 (stereo unspecified) . no (0)

I would be grateful if you could indicate the recorded call for COc1ccc([C@@H]2CC(=O)c3c(O)cc(O[C@@H]4O[C@H](CO[C@@H]5O[C@@H](C)[C@H](O)[C@@H](O)[C@@H]5O)[C@@H](O)[C@H](O)[C@@H]4O)cc3O2)cc1O . yes (1)

I would be grateful if you could indicate the recorded call for CCC(=O)N[C@H]1CC[C@H](C(=O)N(C)c2ccc(-c3nc4ccccc4o3)cc2)C1 . yes (1)

I would be grateful if you could indicate the recorded call for CC(C)(Sc1ccc(CCN(CCCCC2CCCCC2)C(=O)NC2CCCCC2)cc1)C(=O)O . no (0)

I would be grateful if you could indicate the recorded call for CCc1cncnc1N1CCN(Cc2nc3ccc(C(F)(F)F)cc3[nH]2)CC1 . yes (1)

I would be grateful if you could indicate the recorded call for CCCc1nc2c(C)cc(-c3nc4ccccc4n3C)cc2n1Cc1ccc(-c2ccccc2C(=O)O)cc1 . yes (1)

I would be grateful if you could indicate the recorded call for S=C(NCc1ccc2c(c1)OCO2)N1CCN(c2ncnc3c2oc2ccccc23)CC1 . yes (1)

I would be grateful if you could indicate the recorded call for Cn1cnc([N+](=O)[O-])c1Sc1ncnc2nc[nH]c12 . yes (1)

I would be grateful if you could indicate the recorded call for CS(=O)(=O)Oc1ccc2c(NC(N)=O)c(C(=O)c3ccc(Cl)cc3Cl)oc2c1 . yes (1)

I would be grateful if you could indicate the recorded call for CN1CCN(CCCN2c3ccccc3Sc3ccc(C(F)(F)F)cc32)CC1 . yes (1)

I would be grateful if you could indicate the recorded call for NC(N)=NC(=O)c1nc(Cl)c(N)nc1N . yes (1)
